test system: Escherichia coli; experiment: Antibacterial activity against Escherichia coli BAA2452 expressing blaNDM-1 clinical isolates assessed as fold potentiation incubated for 16 to 18 hrs by broth microdilution method; type: functional; settings: time 16-18 hrs
Measurement Type: fold change (FC)
Hey, just send me the number, nothing else.

[
  {
    "Compound": "O=P(O)(O)Cc1cccc(-n2cc(-c3ccc(Br)cc3)nn2)c1",
    "fold change (FC)": 4
  },
  {
    "Compound": "Nc1cccc(-c2cn(-c3cccc(C(c4ccc(-c5ccc(Br)cc5)cc4)P(=O)(O)O)c3)nn2)c1 (configuration not stated)",
    "fold change (FC)": 16
  },
  {
    "Compound": "CC(C)(C)c1ccc(C(c2cccc(-n3cc(-c4cccc(N)c4)nn3)c2)P(=O)(O)O)cc1 (configuration not stated)",
    "fold change (FC)": 8
  },
  {
    "Compound": "CCCc1ccc(C(c2cccc(-n3cc(-c4cccc(N)c4)nn3)c2)P(=O)(O)O)cc1 (configuration not stated)",
    "fold change (FC)": 8
  },
  {
    "Compound": "O=[N+]([O-])c1ccc(Cn2cc(-c3cccc(B(O)O)c3)nn2)cc1",
    "fold change (FC)": 2
  },
  {
    "Compound": "Cc1ccc(-c2ccc(C(c3cccc(-n4cc(-c5cccc(N)c5)nn4)c3)P(=O)(O)O)cc2)cc1 (configuration not stated)",
    "fold change (FC)": 8
  }
]

With those in mind, consider the next compound.
stdin: Given the entry NCCOc1ccc(-c2cn(-c3cccc(C(=O)O)c3C(=O)O)nn2)cc1 , report its measured fold change (FC).
stdout: 2

---

experiment: Inhibition of recombinant his tagged IMP1 (unknown origin) expressed in Escherichia coli (DE3) cells using FC5 as substrate by microplate reader assay
// NB: equality with 10 µM counts as F; only IC50 strictly below is T

These solved cases illustrate the format of a correct answer.
[
  {
    "Compound": "O=C(O)c1cccc(-n2cc(-c3ccccc3)nn2)c1",
    "Assigned Class": "F"
  },
  {
    "Compound": "Cc1ccc(-c2cn(-c3cccc(CP(=O)(O)O)c3)nn2)cc1",
    "Assigned Class": "T"
  },
  {
    "Compound": "O=C(O)c1cccc(-n2cc(-c3ccccc3)nn2)c1O",
    "Assigned Class": "F"
  },
  {
    "Compound": "OCCn1cc(-c2cccc(B(O)O)c2)nn1",
    "Assigned Class": "F"
  },
  {
    "Compound": "O=C(O)c1cccc(-n2cc(-c3ccccc3)nn2)c1C(=O)O",
    "Assigned Class": "T"
  },
  {
    "Compound": "Nc1cccc(-c2cn(-c3cccc(C(c4ccc(-c5ccc(Br)cc5)cc4)P(=O)(O)O)c3)nn2)c1 (stereo unspecified)",
    "Assigned Class": "F"
  },
  {
    "Compound": "O=C(NCc1cccc(-c2cn(-c3cccc(CP(=O)(O)O)c3)nn2)c1)C(F)(F)F",
    "Assigned Class": "T"
  },
  {
    "Compound": "N#Cc1ccc(C(c2cccc(-n3cc(-c4cccc(N)c4)nn3)c2)P(=O)(O)O)cc1 (stereo unspecified)",
    "Assigned Class": "T"
  }
]

stdin: IC50 under 10 µM? Item: Cc1cccc(-c2cn(-c3ccc(CP(=O)(O)O)cc3)nn2)c1
stdout: F

stdin: NCc1cccc(-c2cn(-c3cccc(CP(=O)(O)O)c3)nn2)c1 , same question.
stdout: F

stdin: Can you handle NCc1cn(-c2ccccc2CP(=O)(O)O)nn1 next?
stdout: F

stdin: And Nc1ccccc1-c1cn(-c2ccc(CP(=O)(O)O)cc2)nn1 ?
stdout: F

stdin: Repeat for the following compound: CCc1ccc(C(c2cccc(-n3cc(-c4cccc(N)c4)nn3)c2)P(=O)(O)O)cc1 (stereo unspecified)
stdout: T

stdin: And the next one, O=P(O)(O)Cc1cccc(-n2cc(-c3cccc(Br)c3)nn2)c1 ?
stdout: F

stdin: Try NCc1cccc(-c2cn(-c3cccc(C(=O)O)c3C(=O)O)nn2)c1 next.
stdout: F

---

experiment: Inhibition of recombinant VIM-5 (unknown origin) expressed in Escherichia coli (DE3) cells using FC5 as substrate by microplate reader assay
Measurement Type: IC50

[
  {
    "Compound": "NCc1cccc(-c2cn(-c3cccc(C(=O)O)c3C(=O)O)nn2)c1",
    "IC50": "> 100 µM"
  },
  {
    "Compound": "NCc1cn(-c2ccccc2CP(=O)(O)O)nn1",
    "IC50": "> 100 µM"
  },
  {
    "Compound": "Nc1c(C(=O)O)cccc1-n1cc(-c2ccccc2)nn1",
    "IC50": "> 100 µM"
  },
  {
    "Compound": "CCCCc1cn(-c2cccc(C(=O)O)c2C(=O)O)nn1",
    "IC50": "> 100 µM"
  },
  {
    "Compound": "Nc1cccc(-c2cn(-c3cccc(C(c4ccc(-c5ccccc5)cc4)P(=O)(O)O)c3)nn2)c1 (centres undefined)",
    "IC50": "0.002 µM"
  }
]

stdin: Look at this compound and give its reported IC50. O=C(O)c1cccc(-n2cc(-c3ccccc3)nn2)c1
stdout: > 100 µM

stdin: # iterate: O=P(O)(O)Cc1cccc(-n2cc(-c3ccccc3Br)nn2)c1
stdout: 0.095 µM

stdin: Would you kindly repeat that for CC(C)(C)c1ccc(C(c2cccc(-n3cc(-c4cccc(N)c4)nn3)c2)P(=O)(O)O)cc1 (centres undefined) ?
stdout: 0.001 µM

stdin: Same thing, different compound: Nc1ccc(-c2cn(-c3cccc(C(=O)O)c3C(=O)O)nn2)cc1
stdout: > 100 µM

---

Recorded IC50 for the following compounds
assay: Inhibition of recombinant his tagged IMP1 (unknown origin) expressed in Escherichia coli (DE3) cells using FC5 as substrate by microplate reader assay
API: value field is a number in µM; no unit string.

Check out these entries, answers already filled in.
[
  {
    "Compound": "O=P(O)(O)Cc1ccccc1-n1cc(-c2cccc(Cl)c2)nn1",
    "Quantitative Result": 80.4
  },
  {
    "Compound": "O=C(O)c1cn(-c2cccc(C(=O)O)c2C(=O)O)nn1",
    "Quantitative Result": 29.2
  },
  {
    "Compound": "CC(C)(C)c1ccc(C(c2cccc(-n3cc(-c4cccc(N)c4)nn3)c2)P(=O)(O)O)cc1 (stereo unspecified)",
    "Quantitative Result": 1.37
  }
]

stdin: Quick check: IC50 of COc1cccc(-c2cn(-c3cccc(CP(=O)(O)O)c3)nn2)c1 ?
stdout: 12.2

stdin: What would you report for CCCCc1cn(-c2cccc(CP(=O)(O)O)c2)nn1 ?
stdout: 12.3

stdin: Then this compound: Cc1ccc(C(c2cccc(-n3cc(-c4cccc(N)c4)nn3)c2)P(=O)(O)O)cc1 (stereo unspecified)
stdout: 0.027

stdin: Then Nc1cccc(-c2cn(-c3cccc(CP(=O)(O)O)c3)nn2)c1 ?
stdout: 1.96

stdin: Can you check O=C(O)c1ccccc1-c1cn(-c2cccc(C(=O)O)c2C(=O)O)nn1 next?
stdout: 13.9

stdin: Try the compound Nc1cccc(-c2cn(-c3cccc(C(c4ccc(Br)cc4)P(=O)(O)O)c3)nn2)c1 (stereo unspecified)
stdout: 0.44

stdin: And for COc1ccc(-c2cn(-c3cccc(CP(=O)(O)O)c3)nn2)cc1 ?
stdout: 6.41
